All values here come from patent US20220306647A1.

molecular target: HBV core protein (C-terminal truncated core protein, 149 amino acids of the N-terminal assembly domain, BODIPY-FL labelled) (UniProt P03146); construct: fused on or other part: A single cysteine added after residue 149, at position 150; It carries the BODIPY-FL maleimide label; assay: Biochemical capsid assembly assay (fluorescence quenching); conditions: assembly started with NaCl, fluorescence read after 6 min, read-out: Assembly activity
Sequence (P03146 whole entry, the tested form may be a part): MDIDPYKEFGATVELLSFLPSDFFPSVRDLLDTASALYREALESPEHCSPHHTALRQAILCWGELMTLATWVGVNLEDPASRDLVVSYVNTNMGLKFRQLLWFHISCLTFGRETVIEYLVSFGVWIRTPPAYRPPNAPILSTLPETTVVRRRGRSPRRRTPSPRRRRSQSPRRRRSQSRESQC
Collected IC50 values appear next to each entry.

Example entries and their recorded answers appear below.
>  <test-smiles>
CN(C(=O)c1cnn2c1CN(C(=O)c1cc3c(F)c(F)ccc3[nH]1)CC2)C1(c2ncc(C(=O)O)cn2)CC1

>  <IC50>
< 5 µM

$$$$
>  <test-smiles>
CN(C(=O)c1noc2c1CN(C(=O)c1cc3ccccc3[nH]1)CC2)C1(c2cocn2)CC1

>  <IC50>
< 5 µM

$$$$
>  <test-smiles>
CN(Cc1ccccc1C(=O)O)C(=O)c1[nH]nc2c1CN(C(=O)c1cc3ccccc3[nH]1)CC2

>  <IC50>
< 5 µM

$$$$

# next compound below
Item CN(C(=O)c1cnn2c1CN(C(=O)c1cc3ccccc3[nH]1)CC2)C1(c2ccc(C(=O)O)cn2)CC1 has what recorded IC50?
< 5 µM
